Target: T1, AAV9 (adeno-associated virus serotype 9)
T1 construct: also called adeno-associated virus serotype 9
Assay: SPR, AAV on CM5 chip
Response field label: string, one of met (koff strictly below 0.0008 s⁻¹) or not met.

binder="A4-H5 (VHH) VHH: VQLQASGGGFVQPGGSLRLSCAASGRGFSINTMGWFRQAPGKERELVAVVTRGGTTYYADSVKGRFTISRDNSKNTVYLQMNSLRAEDTAVYYCHVDEVRQSSWTTSNLWGQGTQVTVSS" qualitative_label="not met"
binder="A4-H6 (VHH) VHH: VQLVESGGGLVQPGGSLRLSCAASGRGFSINTMGWFRQAPGKGRELVAIVTRGGTTYYADSVKGRFTISRDNSKNTVYLQMNSLRAEDTAVYYCHVDEVRQSSWTTSNLWGQGTLVTVSS" qualitative_label="not met"
binder="A4-H2 (VHH) VHH: VQLQASGGGFVQPGGSLRLSCAASGRSFSINTMGWFRQAPGKEREFVAVVTRGGSTYYADSVKGRFTISRDNSKNTVYLQMNSLRAEDTATYYCHIDEVRQSSWTTSNIWGQGTQVTVSS" qualitative_label="not met"
binder="A4-H1 (VHH) VHH: VQLVESGGGLVQPGGSLRLSCAASGRSFSINTMGWFRQAPGKGLEAVAIVTRGGSTYYADSVKGRFTISRDNSKNTLYLQMNSLRAEDTAVYYCHIDEVRQSSWTTSNIWGQGTLVTVSS" qualitative_label=met
binder="A4-H3 (VHH) VHH: VQLQASGGGFVQPGGSLRLSCAASGSIFSINLMGWFRQAPGKERELVAVITPGGNTYYADSVKGRFTISRDNSKNTVYLQMNSLRAEDTATYYCHVDEVRQSSWTTSNLWGQGTQVTVSS" qualitative_label=met
